System: SK-OV-3 ovarian
EXPERIMENT: NCI-60 one-dose screen, 48 h (100 = growth as untreated, 0 = no growth, -100 = all killed)
MEASUREMENT_CONDITIONS: 10 µM unless noted
About 83,000 compounds went through this panel and 20% of them were active in at least one assay; those are over-represented in the sample as a whole. Active and inactive are the calls of the source. How the source made its calls: active means growth percent below 10; inactive means the rest.
Entries and their growth values follow.

Request: What value of growth has been reported for the following compound? COc1cc(C2=NN(C(C)=O)C(c3ccc(N4CCOCC4)cc3)C2)cc(OC)c1OC (stereo not drawn)
Response: 97.4% (inactive)

Request: What value of growth has been reported for the following compound? C=CCn1c(SCC(=O)Nc2cccc(C(=O)/C=C/c3ccc(C)cc3)c2)nc2ccccc2c1=O
Response: 113% (inactive)

Request: What value of growth has been reported for the following compound? CCN1C(=O)N(CC)C2SC(N/N=C/c3ccccc3F)=NC21 (stereo not drawn)
Response: 30.4% (inactive)

Request: What value of growth has been reported for the following compound? C#C[C@]1(O)CC[C@H]2[C@@H]3CC=C4c5sc(-c6cccc(F)c6)nc5CC[C@]4(C)[C@H]3CC[C@@]21C
Response: 92.7% (inactive)

Request: What value of growth has been reported for the following compound? COc1ccc(-c2nnc(/N=C3/C(=O)Nc4ccc(Br)cc43)o2)cc1
Response: 108% (inactive)

Request: What value of growth has been reported for the following compound? COc1cc(-c2nc(SCc3ccc(C)cc3)[nH]c(=O)c2C#N)ccc1OCc1ccccc1
Response: 108% (inactive)

###

Tested on: HOP-92 NSCLC
EXPERIMENT: NCI-60 one-dose screen, 48 h (100 = growth as untreated, 0 = no growth, -100 = all killed)
MEASUREMENT_CONDITIONS: 10 µM unless noted
This is part of a sample that, as a whole, favours compounds with a hit. Of some 83,000 tested, about 20% had one in any assay.
METRIC_NAME: growth (%)
Give just the numeric value; % need not be written.

Check out these entries, answers already filled in.
CCNC(=O)Oc1ccc(/C(=C(/C)c2ccccc2)c2ccc(OCCN3CCCC3)cc2)cc1; 61.9
COc1cccc(/C=C/C(=O)c2ccc(NC(=O)COc3cccc4cccnc34)cc2)c1; 107
O=C(Nc1cc(Cl)cc(Cl)c1)Nc1nc2ccc([N+](=O)[O-])cc2s1; -6.65
CCCCCCNC(=O)Oc1ccc(/C(=C(\C)c2ccc(OC)cc2)c2ccc(OCCN(C)C)cc2)cc1; 50.4
O=C(CN1C(=O)S/C(=C\c2ccccc2)C1=O)Nc1ccc(C(=O)/C=C/c2cc3ccccc3nc2Cl)cc1; 87.9

Request: What value of growth has been reported for the following compound? C=CCn1c(SCC(=O)Nc2cccc(C(=O)/C=C/c3ccccc3)c2)nc2ccccc2c1=O
Response: 76.1

Request: What value of growth has been reported for the following compound? C#CCOc1ccccc1C(Nc1ccccc1)c1nnnn1C1CCCCC1 (stereo unspecified)
Response: 103

Request: What value of growth has been reported for the following compound? CS(=O)(=O)c1ccc2c(c1)c1c(n2S(=O)(=O)c2ccc(Cl)cc2)CCCC1
Response: 32.7

Request: What value of growth has been reported for the following compound? COC(=O)c1c(C(=O)OC)c2n(CC(=O)Nc3cccc4cccnc34)c3ccccc3n2c1C(=O)c1ccc(C)cc1
Response: 89.7

Request: What value of growth has been reported for the following compound? C#CCOc1ccc(C(Nc2cc(Cl)ccc2Cl)c2nnnn2C2CCCCC2)cc1 (stereo unspecified)
Response: 72.7

Request: What value of growth has been reported for the following compound? C=C(C)[C@@H]1CC[C@]2(C(=O)NCCCN(CCC#N)CCC#N)CC[C@]3(C)[C@H](CC[C@@H]4[C@@]5(C)CCC(=O)C(C)(C)[C@@H]5CC[C@]43C)[C@@H]12
Response: 102

Request: What value of growth has been reported for the following compound? CCCCCCNC(=O)Oc1ccc(/C(=C(/C)c2ccccc2)c2ccc(OCCN(C)C)cc2)cc1
Response: 44.5

Request: What value of growth has been reported for the following compound? Oc1ccc(CSc2nnc(-c3ccccc3)n2-c2ccccc2)c2cccnc12
Response: -14.4

Request: What value of growth has been reported for the following compound? CC(=O)Nc1ccc(NC(=O)Nc2cccc(-c3nc(-c4ccc(NC(=O)c5cccnc5)cc4Cl)no3)c2)cc1C(F)(F)F
Response: -65.6

Request: What value of growth has been reported for the following compound? CCOC(=O)Nc1cccc(-n2cnc3cc(-c4ccc(O)cc4)ccc32)c1
Response: 116

Request: What value of growth has been reported for the following compound? O=C(CSc1ccc(-c2nc3ccccc3[nH]2)cn1)N1CCN(c2ccccc2F)CC1
Response: 71.9

Request: What value of growth has been reported for the following compound? CC[C@H](C)[C@H]1NC(=O)[C@@H]([C@H](O)C(C)C)NC(=O)[C@@H](C)N(C)C(=O)[C@H](C)N(C)C(=O)[C@H](CC(C)C)NC(=O)[C@H](CC(C)C)N(C)C(=O)[C@H](C)N(C)C1=O
Response: -3.54

Request: What value of growth has been reported for the following compound? COc1cc(C2=NN(C(C)=O)C(c3ccc(N4CCOCC4)cc3)C2)cc(OC)c1OC (stereo unspecified)
Response: 92.4

Request: What value of growth has been reported for the following compound? CCOC(=O)CC(=O)CSC1=NC2C(NN1)N(C)C(=O)N2C (stereo unspecified)
Response: 88.7

###

Entries and their growth values follow.
System: UACC-62 melanoma
EXPERIMENT: NCI-60 one-dose screen, 48 h (100 = growth as untreated, 0 = no growth, -100 = all killed)
MEASUREMENT_CONDITIONS: 10 µM unless noted
This is part of a sample that, as a whole, favours compounds with a hit. Of some 83,000 tested, about 20% had one in any assay.
Give just the numeric value; % need not be written.

Check out these entries, answers already filled in.
Cc1ccc(/C=C/CC(=O)Nc2ccc(C(=O)Nc3ccc(F)cc3N)cc2)cn1; 51.3
O=C(C[n+]1ccnc2ccccc21)c1ccc(O)c(O)c1; 54.6
O=C1c2c(c3c4cc(O)ccc4oc3c3[nH]c4ccccc4c23)C(=O)N1O; -53.6
O=C1Nc2ccc(Cl)cc2/C1=C/c1ccc(OCc2ccc(Br)cc2F)cc1; 93.6
COc1ccc(-c2nnc(SCc3ccc(O)c4ncccc34)n2-c2ccccc2)cc1; 2.62
CCOC(=O)/C=c1\sc2n(c1=O)C1C(NN=2)N(CC)C(=O)N1CC (stereo not given); 39
CCOP(=O)(OCC)OC[C@]12CCC(C)(C)C[C@H]1C1=CC[C@@H]3[C@@]4(C)C/C(=C\c5cccnc5)[C@H](OP(=O)(OCC)OCC)C(C)(C)[C@@H]4CC[C@@]3(C)[C@]1(C)CC2; 25.5
CCN(CC)CCN1C(=O)c2c(c3c4cc(Br)ccc4[nH]c3c3ccc4ccccc4c23)C1=O; 31.7

Request: What value of growth has been reported for the following compound? COc1ccc(Cn2cc3c(c2-c2ccccc2)CCCc2cnoc2-3)cc1
Response: 42.7

Request: What value of growth has been reported for the following compound? CCN1CCN(Cc2ccc(C(=O)Nc3nc4ccc(Oc5ccnc(C(=O)NC)c5)cc4s3)cc2C(F)(F)F)CC1
Response: 24.6

###

Tested on: OVCAR-4 ovarian
EXPERIMENT: NCI-60 one-dose screen, 48 h
MEASUREMENT_CONDITIONS: 10 µM unless noted
Compounds without any hit were thinned out: in the full panel of roughly 83,000, 20% have a hit. Calls of active or inactive are those of the source. Rule for the calls: active = growth percent below 10; inactive = the rest.
Respond using exactly one of the listed classes: true (active), false (inactive)

COc1cc2cc(Oc3ccc(NC(=O)Nc4cc(C(F)(F)F)cc(C(F)(F)F)c4)cc3)c(C)nc2cc1OCCN(C)C; false
CC(=O)Nc1ccc(NC(=O)Nc2cccc(-c3nc(-c4ccc(NC(=O)c5cccs5)cc4Cl)no3)c2)cc1C(F)(F)F; true

Request: Can you look up the reported call for C/C(=N/Nc1nc(N/N=C(/C)c2ccc([N+](=O)[O-])cc2)nc(N2CCOCC2)n1)c1ccc([N+](=O)[O-])cc1 for me?
Response: false

Request: Can you look up the reported call for O=c1c2ccccc2nc(COc2ccccc2)n1/N=C/C=C/c1ccccc1 for me?
Response: false

Request: Can you look up the reported call for O=S(=O)(Nc1ccc(C2CC2)cc1)c1ccc(-c2cnc(C3CC3)o2)cc1 for me?
Response: false

Request: Can you look up the reported call for O=S(=O)(NC1CC2CCC1C2)c1ccc2c(c1)C(=NO)c1cc(S(=O)(=O)NC3CC4CCC3C4)ccc1-2 (stereo not drawn) for me?
Response: true

Request: Can you look up the reported call for COCCC[C@H]1O[C@@](O)([C@H](C)[C@@H]2CC(OC)C(O)/C=C(C)/C=C(C)/C=C(\C)C(OC3O[C@@H](C)[C@H](O)C(O)[C@@H]3O)C(C)/C=C(C)/C=C(OC)/C=C(\C)C(=O)O2)C(OC)C(O)[C@]1(C)O[C@H]1C[C@@H](O)[C@H](O[C@H]2C[C@](C)(O)[C@H](O)C(C)O2)C(C)O1 (stereo partly drawn) for me?
Response: false

Request: Can you look up the reported call for O=C(CN1C(=O)S/C(=C\c2ccccc2)C1=O)Nc1ccc(C(=O)/C=C/c2cc3ccccc3nc2Cl)cc1 for me?
Response: false
